This section presents sequences with their documented z-score values.
Test: Components of the Cytosolic LPS Sensing Pathway: Gene Identification via Genome-wide siRNA Screen;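 also: robust z of the log signal after scaling to non-targeting control siRNA wells of the plate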
Conditions: RAW264.7 macrophages, IL-1a HTRF, actives lie on both sides, screened at 100 nM (by protocol), cells primed 5 h with Pam3CSK4 first
About 3,700 (7%) of roughly 53,000 sequences were called active. This excerpt belongs to a sample that is enriched for actives.

RESIDUES | z-score
GGCAAAGGACUUCAUGGCUTT against B4galt4 | -1.42
GGAGCACUUGUGGAUCAAUTT against Efhd1 | 1.03
GACUUCAGACAAAUAGUGCTT against Lce1i | -1.24
GGAUGAAGGGACGAAUUCATT against Pcdha6 | 0.635

---

Assay: Components of the Cytosolic LPS Sensing Pathway: Gene Identification via Genome-wide siRNA Screen;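 also: robust z of the log signal after scaling to non-targeting control siRNA wells of the plate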
Details: RAW264.7 macrophages, IL-1a HTRF, actives lie on both sides, screened at 100 nM (by protocol), cells primed 5 h with Pam3CSK4 first
Out of some 53,000 sequences screened, about 3,700 (7%) were called active. This is one part of a sample in which actives are shown more often than they occur.
This section presents sequences with their documented z-score values.

RESIDUES | z-score
GGGACCUACAUUACAAUUUTT against Suz12 | 1.06
GGAAGGUGUCUGUAAUAUATT against Slamf9 | -0.0451
GGUUUGUUUUCAGAUGAAGTT against Washc2 | 0.155
GGUCCGAAAGGCAGCUAUATT against Fcer1g | -2.17
GCAGAAAAACAUCCACGACTT against Spn | -2.01
GCCACGUCUAAGUAUCAUUTT against Col6a1 | -0.377
GCCAGGAUACUAAGUGUUUTT against Jpt2 | 1.05
GGAUCUUGAAGCCAAAUACTT against Ccdc127 | 2.56
GGAACUUAGAAGUUUACAATT against Caml | -0.0418
CCUUGGACUAUGGCAAAAATT against Neurod6 | 0.418
GCGACCAGCAGGUCAAAAUTT against Hoxd12 | 3.09
GGGCCAAACCCAGAACUAUTT against Sema4g | 1.5
GGCUGGUGUAAUCGAAACATT against Ttc39c | 0.0501
CCUACGCCAAGCAGUAUGATT against Mcm3 | 0.286
GCACAUAGUGUAUCUAUACTT against Cd86 | -1.24
GGCAGUACAACUGGUCUACTT against 0610040J01Rik | 2.21
GGGAAAGUCGUUGAAAUUUTT against Stx18 | 0.941
GCUGGUUUUGAACUGUACATT against Flt4 | 0.155
CCAGGAUCCUGUUUCUGACTT against AF067061 | 2.19
GCCUAAAAACUCUAAAUCUTT against Mmut | -0.0189
GGAUCGAUCUGACAUCAAATT against Epyc | -0.31
GUACACCACAAUCCUCACCTT against Olfr677 | -0.0852
GGAUGGUAACCAUCAUAUUTT against Vmn1r54 | -0.887
GCCACUCUUUAAGAAUCUATT against Abcf1 | -0.552
GGAAAGGAAUCCAAAAAUCTT against Lias | -0.42
GGUCAUUGGUAGGUCCACUTT against Rusc2 | 0.338
GCCUGAUUGACUUAGAGUCTT against Eps8 | 0.821
GGUAAACUUGACAAUAGGATT against Zc3h14 | -0.512
GAACAACAACAGACAAGUGTT against Cxcl12 | -0.65
GCCAUACACAGUGGCAUAATT against Zfp811 | 0.395

---

Assay: Components of the Cytosolic LPS Sensing Pathway: Gene Identification via Genome-wide siRNA Screen;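 also: robust z of the log signal after scaling to non-targeting control siRNA wells of the plate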
Settings: RAW264.7 macrophages, IL-1a HTRF, actives lie on both sides, screened at 100 nM (by protocol), cells primed 5 h with Pam3CSK4 first
Screen size: about 53,000 sequences; about 3,700 (7%) were called active.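 Rule for the calls: active = gene knockdowns whose robust z-score for IL-1 alpha signal is at least 2 or at most -2, so actives lie on both sides; inactive = the rest.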 This is one part of a sample in which actives are shown more often than they occur.
Possible outcomes: T = active, F = inactive

RESIDUES | ASSIGNED CATEGORY
CGUAGCUAAUCCGUAAAAGTT against 1700120K04Rik | F
GGAAAGUGCAUCAUAGACATT against Thrb | F
CCAAGUAAGGACUAUAGAGTT against Gpatch2 | F
GCGAUGUCAAUCAAUUCUGTT against Gpr37l1 | F
GGGUGGCUAUGGACAAAAATT against Arl5c | F
GGAAUUGGUCUAUAUGCGUTT against Il2ra | F
CGGCGGUGUGUUGUUUUAGTT against Hmces | F
GGUCUUCCAGAACAAUUACTT against Prtn3 | F
GGAGCAGUUGUGUUUAACATT against Psg17 | F
GGAACCAAUCAGUUGGUUATT against Taf7 | F
CCAUCGGGAUUGACUAUGGTT against Dnajc27 | F
GGAGCUGUGCGGUCUGUUATT against Mul1 | F
GGGACUGUACCCAGUUUAATT against Ccl27a | F
AUCUCUCCUGUUCUAACACTT against Olfr26 | F
GACAUACCAGCCGUAUAACTT against Erh | T
GCGGAAAUCUAAUUGCUUGTT against Kat5 | F
GCACUUUAAUCUGGCUACCTT against Dnmt3b | F
GCUGAAUCACUACCAGUCATT against Zfp462 | F
CCUGACAGUACCAAAAAAUTT against Pax4 | F
GGACAUGUCCGAAUACUACTT against Pdss1 | T
GCUGUUUUACCUUAAUCCCTT against Tnfsf18 | F
GGCAAGAAGGACAAUGAGUTT against Mb21d2 | T
GCAAACCUCAAUCUUGAAATT against Kif15 | F
GACAAGCAAUAAAGAAAGATT against Lce1l | F
GGGUAGAAUGACUUUGGCCTT against Cldn2 | F
GCCUUGGUACACUAAACUCTT against Rhcg | F
GGGCUCUACAGUUUUUAAUTT against Atp5g3 | F
GGCCAACUUCGAAGAAAAGTT against Mrpl52 | F
GGGCAAGAGAGUAGAACUGTT against Ambra1 | F
GGACCAGGUCCGUUGGAAUTT against Efna1 | F
GCUAUGACUCCAACAUGCGTT against Jaml | F
GCUGGAAGAUAGUGCUUUUTT against Itpr1 | T
GGGCACUGACAAACGUAUUTT against Olfr433 | F
GGCAUCCUUGAGCUUUAAATT against Nufip2 | F

---

Test: Components of the Cytosolic LPS Sensing Pathway: Gene Identification via Genome-wide siRNA Screen;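 also: robust z of the log signal after scaling to non-targeting control siRNA wells of the plate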
Conditions: RAW264.7 macrophages, IL-1a HTRF, actives lie on both sides, screened at 100 nM (by protocol), cells primed 5 h with Pam3CSK4 first
The whole screen tested about 53,000 sequences, of which about 3,700 (7%) were called active. The sample as a whole holds a higher share of actives than the screen did.

RESIDUES | z-score
GCCUCCUAUCCUGGGAAGATT against Prss3 | 2.54
GCUCUAUGAGAGUAUAUUATT against Tamm41 | -0.495
GGAGACUACUUUGUGUUUUTT against Ermp1 | 0.933
GCUCAGAAUAUCACAUCAATT against Ppm1b | -1.59
GCAUGUACCCUCUUUGUAGTT against Gjb6 | -0.954
GGUCAUGUCCAUCCCAAAGTT against Ficd | 1.15
CCAUUAUGGGAGGAAGAUUTT against Clvs2 | 0.969
GUCACUAUUAAGACACUUATT against Nudcd3 | 0.157
GGGCAGGGACAUUAGUCAUTT against Zfp106 | 2.88
GGAAUUCUCUAUACCAAGATT against P2ry10b | 0.51
GGACUGUGAUUGUUUCAGATT against Mep1a | -0.0817
GGCAGAACACCUUCUUAGUTT against Dars2 | -0.425
GGAGACUUAUUGAGCAAGUTT against Usp44 | 4.42
GGGUGUGACGAUUCUCACCTT against Olfr800 | 0.705
GGCAAGAAAAACACUUUAUTT against Parp3 | 1.85
GGCAAACAUGAAUCUUACCTT against Cyth4 | -0.375
GGUUUUGACAUCACAUUCUTT against Mtfr2 | 1.34
GGAGAUCCUCAUUUGUGUGTT against Ftmt | -1.99
GGAGGCAUGAUAAGCUUCGTT against Pmm1 | -0.425
GCACUUCCCUCCCUAUGCATT against Cep20 | -2.11
GGACCAAGGCUUGGAUCUUTT against Magea6 | 0.527
GGGCUAUGUUGUCUCAAAATT against Gsdma2 | 0.861
GCCAAUAGCUCCAGCUUGATT against Olfr668 | 0.534
GGAACAAAUGUUCGAAAUGTT against Eif4a2 | -0.0347
GGCUACAAAGAUGCAGACUTT against Pi4k2a | 0.22
GGGAAAAUCCACUUUUAAGTT against Hs2st1 | -0.0469
GGAACUUCCUGUUCAGAAATT against Eci3 | 0.881
GGAGAUAGGAUUGCUUGCATT against Mthfd1l | -2.3
CGAUGACGAUGCCUAACCATT against Dgkeos | -2.34
GCUGGUGUGUAACAUCAAUTT against Fut8 | 0.246
GGACCCAAGAAGAUGACGUTT against 0610010K14Rik | -0.694
CCUUGCAGCAUCAGGACUUTT against Ascl2 | 4.06
GGCCUCACAGUGCUUUCUCTT against Olfr1232 | 0.0779
